Source of measurements: ChEMBL document CHEMBL5532685

reported_metric: IC50

Exam item: State its IC50 on Prothrombin (Homo sapiens, UniProt P00734): CCCCCCCCCC(C)CCC(C)C(=O)O (stereo unspecified)
Marked response: > 390 µM

* * *

Target: Spike glycoprotein/Angiotensin-converting enzyme 2 (Severe acute respiratory syndrome coronavirus 2, UniProt P0DTC2+Q9BYF1)
Sequence (Q9BYF1 18-805 limits assumed, other chains not shown): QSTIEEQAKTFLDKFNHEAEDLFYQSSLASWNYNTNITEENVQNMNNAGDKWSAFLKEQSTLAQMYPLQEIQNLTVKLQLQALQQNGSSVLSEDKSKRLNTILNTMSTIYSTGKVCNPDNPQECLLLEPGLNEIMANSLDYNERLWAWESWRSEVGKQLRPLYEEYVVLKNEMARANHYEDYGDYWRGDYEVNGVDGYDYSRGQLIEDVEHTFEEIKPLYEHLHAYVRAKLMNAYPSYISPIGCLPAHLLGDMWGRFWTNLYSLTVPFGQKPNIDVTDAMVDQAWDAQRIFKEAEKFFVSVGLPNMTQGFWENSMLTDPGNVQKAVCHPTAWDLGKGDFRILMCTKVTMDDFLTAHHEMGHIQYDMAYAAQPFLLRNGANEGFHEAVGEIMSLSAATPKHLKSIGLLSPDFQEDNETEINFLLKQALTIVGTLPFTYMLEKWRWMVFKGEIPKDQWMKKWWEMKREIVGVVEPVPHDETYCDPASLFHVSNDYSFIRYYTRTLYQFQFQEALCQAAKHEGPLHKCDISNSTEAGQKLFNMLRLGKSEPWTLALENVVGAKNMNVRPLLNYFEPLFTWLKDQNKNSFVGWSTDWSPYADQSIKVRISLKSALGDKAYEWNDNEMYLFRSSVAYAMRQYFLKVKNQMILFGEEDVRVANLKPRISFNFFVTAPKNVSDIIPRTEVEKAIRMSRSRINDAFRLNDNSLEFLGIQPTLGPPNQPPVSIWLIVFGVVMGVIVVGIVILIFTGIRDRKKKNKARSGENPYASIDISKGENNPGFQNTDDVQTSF
Assay: Inhibition of His-tagged SARS-CoV2 USA-WA1/2020 spike-RBD/biotinylated Fc-tagged ACE2 (unknown origin) protein protein interaction incubated for 1 hr by Alphascreen assay
pIC50: −log10 of the molar value.
reported_metric: pIC50

Exam item: What value of pIC50 has been recorded for this entry: CCCCCCCCCC(C)CCC(C)C(=O)OCc1ccccc1 (configuration not stated)
Marked response: < 3.54

Exam item: Entry under review: CCCCCCCCCC(C)CCC(C)C(=O)OC (configuration not stated) . Reported pIC50?
Marked response: < 3.43
